Sourced from ChEMBL document CHEMBL1201862

GI50 values for the compounds below.
Test system: OVCAR-4
PROTOCOL TEXT: NCI tumour cell line growth inhibition, 48 h
Calls of active or inactive are those of the source. Cut-off read from the data, not from the text of the source: active = GI50 up to about 1.1 µM and inactive = higher.

>>> observed_measurement("Cc1nc2nnc(CCCCCCCCc3nnc4nc(C)[nH]n34)n2[nH]1")
"> 100 µM (inactive)"

response.value for CC(=O)OC1COC(N2C(=O)C(=O)c3c(C)cc(Cl)nc32)C(OC(C)=O)C1OC(C)=O (centres undefined) (field: GI50) = > 100 µM (inactive)

Consider COC(=O)N/N=C(/c1nc2ccc([N+](=O)[O-])cc2nc1O)C(O)c1ccc(OC)c(OC)c1 (centres undefined) . Its measured GI50 is > 100 µM (inactive)

GI50 recorded for this compound, OCCNCNc1nc(NCNCCO)nc(N(CNCCO)CNCCO)n1 , is 25.9 µM (inactive)
